Sourced from ChEMBL document CHEMBL2440019

- Tested on: PANC-1
- Test: Cytotoxicity against human PANC1 cells after 48 hrs by Alamar Blue assay
- Type: cell-based
- Test Settings: PANC-1, 48 h
Value Kind: EC50 (µM)
Write the number in µM without appending the unit.

For the record COc1cc2c(NC3CCN(C(C)C)CC3)nc(N3CCC(F)(F)CC3)nc2cc1OCCCN1CCCC1 , what value of EC50 is listed for PANC-1?
3.5

---

- Tested Target: UniProtKB Q96KQ7
- Sequence (Q96KQ7 whole entry): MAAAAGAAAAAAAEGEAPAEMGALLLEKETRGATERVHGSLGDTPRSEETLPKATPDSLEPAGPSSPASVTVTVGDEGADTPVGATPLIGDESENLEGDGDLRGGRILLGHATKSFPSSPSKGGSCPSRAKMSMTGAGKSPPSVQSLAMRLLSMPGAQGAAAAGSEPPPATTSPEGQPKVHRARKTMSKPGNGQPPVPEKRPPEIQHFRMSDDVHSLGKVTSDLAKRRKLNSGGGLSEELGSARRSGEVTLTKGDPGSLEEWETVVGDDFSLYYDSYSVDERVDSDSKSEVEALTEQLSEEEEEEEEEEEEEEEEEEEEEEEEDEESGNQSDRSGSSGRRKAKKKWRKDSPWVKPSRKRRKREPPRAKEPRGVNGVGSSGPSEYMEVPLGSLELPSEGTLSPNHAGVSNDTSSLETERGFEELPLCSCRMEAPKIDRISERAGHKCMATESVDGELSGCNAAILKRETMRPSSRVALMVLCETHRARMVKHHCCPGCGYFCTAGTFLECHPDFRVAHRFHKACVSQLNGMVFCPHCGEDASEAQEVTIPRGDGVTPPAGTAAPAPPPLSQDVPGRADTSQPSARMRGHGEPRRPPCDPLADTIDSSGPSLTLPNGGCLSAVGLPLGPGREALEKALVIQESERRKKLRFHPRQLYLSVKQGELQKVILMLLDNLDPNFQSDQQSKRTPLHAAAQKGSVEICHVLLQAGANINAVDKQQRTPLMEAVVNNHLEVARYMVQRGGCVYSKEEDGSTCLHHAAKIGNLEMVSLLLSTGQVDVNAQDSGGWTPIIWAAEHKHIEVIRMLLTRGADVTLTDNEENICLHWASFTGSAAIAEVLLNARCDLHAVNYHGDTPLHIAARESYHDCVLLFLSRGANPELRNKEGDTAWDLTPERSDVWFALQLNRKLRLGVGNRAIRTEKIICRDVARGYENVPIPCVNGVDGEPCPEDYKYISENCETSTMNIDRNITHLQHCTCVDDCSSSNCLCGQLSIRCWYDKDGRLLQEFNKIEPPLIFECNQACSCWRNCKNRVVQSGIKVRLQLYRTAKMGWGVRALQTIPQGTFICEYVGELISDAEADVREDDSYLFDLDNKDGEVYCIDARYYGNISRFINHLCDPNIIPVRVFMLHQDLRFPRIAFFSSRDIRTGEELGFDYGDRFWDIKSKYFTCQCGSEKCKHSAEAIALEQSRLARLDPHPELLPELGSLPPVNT
Value Kind: IC50 (nM)
Write the number in nM without appending the unit.

For the record COc1cc2c(NC3CCN(C(C)C)CC3)nc(N3CC(F)(F)C(F)(F)C3)nc2cc1OCCCN1CCCC1 , what value of IC50 is listed for UniProtKB Q96KQ7?
26

Would you kindly repeat that for COc1cc2c(NC3CCN(C4CC4)CC3)nc(N3CCC(F)(F)CC3)nc2cc1OCCCN1CCCC1 ?
3

Would you kindly repeat that for COc1cc2c(NC3CCN(C4CC4)CC3)nc(N3CCS(=O)(=O)CC3)nc2cc1OCCCN1CCCC1 ?
4

Would you kindly repeat that for COc1cc2c(NC3CCN(C(C)C)CC3)nc(N3CCS(=O)(=O)CC3)nc2cc1OCCCN1CCCC1 ?
14

Would you kindly repeat that for COc1cc2c(NC3CCN(C(C)C)CC3)nc(C3CCOCC3)nc2cc1OCCCN1CCCC1 ?
9
